# assayed-system: HLA-A*24 (human)
# test-description: UV-ligand exchange, anti-b2m ELISA
observation-type: peptide exchange yield

WYVNGVNYF [SEQ ID NO: 189 peptide …]
20 to 49%
YYVYIMNHL [SEQ ID NO: 225 peptide …]
50 to 75%
IYKVGAPTI [SEQ ID NO: 185 peptide …]
50 to 75%
SYALLTYMI [SEQ ID NO: 192 peptide …]
> 75%
EYINQGDLHEF [SEQ ID NO: 275 peptide …]
50 to 75%

Working through the 5 binders below one at a time, give peptide exchange yield for each.
1. RFHPTPLLL [SEQ ID NO: 193 peptide …]
2. RYISDQLFTNF [SEQ ID NO: 278 peptide …]
3. VYPWLGALL [SEQ ID NO: 177 peptide …]
4. LYLDIINLF [SEQ ID NO: 181 peptide …]
5. LYITEPKTI [SEQ ID NO: 287 peptide …]

Result block:
> 75%
> 75%
> 75%
> 75%
50 to 75%

Working through the 2 binders below one at a time, give peptide exchange yield for each.
1. QYLQDAYSF [SEQ ID NO: 272 peptide …]
2. DYTTWTALL [SEQ ID NO: 165 peptide …]

Result block:
> 75%
> 75%
